All values here come from ChEMBL document CHEMBL1157900.

Entries annotated with measured pIC50
TGT: Acetylcholinesterase (Electrophorus electricus)
ASSAY_EXPLANATION: Inhibition of Electric eel AChE after 2 mins by colorimetric Ellman assay
CONDITIONS: read-out: IC50
pIC50: −log10 of the molar value.

COMPOUND | TGT | RELATION_OPERATOR | pIC50
C[N+]12CCc3ccccc3C1c1ccc(OCCCCOc3ccc4c(c3)CC[N+]3(C)CCc5ccccc5C43)cc1CC2 (stereo not drawn) | Acetylcholinesterase (Electrophorus electricus) | = | 6.41
c1ccc2c(c1)CCN1CCc3cc(OCCCCCCCCOc4ccc5c(c4)CCN4CCc6ccccc6C54)ccc3C21 (stereo not drawn) | Acetylcholinesterase (Electrophorus electricus) | = | 5.92
C[N+]12CCc3ccccc3C1c1ccc(OCCCCCCCCOc3ccc4c(c3)CC[N+]3(C)CCc5ccccc5C43)cc1CC2 (stereo not drawn) | Acetylcholinesterase (Electrophorus electricus) | = | 6.55
COc1ccc2c(c1)CCN(C)CCc1ccccc1C2 | Acetylcholinesterase (Electrophorus electricus) | < | 2.00
c1ccc2c(c1)CCN1CCc3cc(OCCCCCCCCCCCCOc4ccc5c(c4)CCN4CCc6ccccc6C54)ccc3C21 (stereo not drawn) | Acetylcholinesterase (Electrophorus electricus) | = | 5.39
C[N+]12CCc3ccccc3C1c1ccc(OCCCOc3ccc4c(c3)CC[N+]3(C)CCc5ccccc5C43)cc1CC2 (stereo not drawn) | Acetylcholinesterase (Electrophorus electricus) | = | 6.35
CN1CCc2ccccc2Cc2ccc(OCCCOc3ccc4c(c3)CCN(C)CCc3ccccc3C4)cc2CC1 | Acetylcholinesterase (Electrophorus electricus) | = | 5.32
c1ccc2c(c1)CCN1CCc3cc(OCCCCCCOc4ccc5c(c4)CCN4CCc6ccccc6C54)ccc3C21 (stereo not drawn) | Acetylcholinesterase (Electrophorus electricus) | = | 6.16

----------
ASSAY_EXPLANATION: Cytotoxicity against human SH-SY5Y cells assessed as cell viability after 24 hrs by MTT assay
Format: cell-based
# strict inequality: CC50 at 24 h < 9 µM yields TRUE, everything else yields FALSE

COMPOUND | GROUP_LABEL
c1ccc2c(c1)CCN1CCc3cc(OCCCCCCCCOc4ccc5c(c4)CCN4CCc6ccccc6C54)ccc3C21 (stereo not given) | FALSE
COc1ccc2c(c1)CCN1CCc3ccccc3C21 (stereo not given) | FALSE
c1ccc2c(c1)CCN1CCc3cc(OCCCCOc4ccc5c(c4)CCN4CCc6ccccc6C54)ccc3C21 (stereo not given) | TRUE
c1ccc2c(c1)CCN1CCc3cc(OCCCCCCOc4ccc5c(c4)CCN4CCc6ccccc6C54)ccc3C21 (stereo not given) | TRUE

----------
TGT: Cholinesterase (Equus caballus)
Sequence (P81908 whole entry): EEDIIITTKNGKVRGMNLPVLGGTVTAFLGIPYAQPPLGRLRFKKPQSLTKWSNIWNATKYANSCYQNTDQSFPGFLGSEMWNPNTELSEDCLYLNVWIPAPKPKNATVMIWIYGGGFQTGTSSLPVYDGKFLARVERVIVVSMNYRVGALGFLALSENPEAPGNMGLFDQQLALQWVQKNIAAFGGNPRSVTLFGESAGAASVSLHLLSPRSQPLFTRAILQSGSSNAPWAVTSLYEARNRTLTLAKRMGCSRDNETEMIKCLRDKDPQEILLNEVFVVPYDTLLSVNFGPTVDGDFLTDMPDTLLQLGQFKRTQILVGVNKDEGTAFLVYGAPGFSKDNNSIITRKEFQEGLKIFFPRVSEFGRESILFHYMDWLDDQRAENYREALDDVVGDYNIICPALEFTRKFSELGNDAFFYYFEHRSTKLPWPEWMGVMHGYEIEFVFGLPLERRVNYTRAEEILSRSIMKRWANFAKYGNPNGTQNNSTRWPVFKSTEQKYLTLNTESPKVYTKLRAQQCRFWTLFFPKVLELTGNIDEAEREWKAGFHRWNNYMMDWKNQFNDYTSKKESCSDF
ASSAY_EXPLANATION: Inhibition of Equine serum BChE after 2 mins by colorimetric Ellman assay
CONDITIONS: read-out: IC50

COMPOUND | RELATION_OPERATOR | IC50, µM
c1ccc2c(c1)CCN1CCc3cc(OCCCCCCCCCCCCOc4ccc5c(c4)CCN4CCc6ccccc6C54)ccc3C21 (configuration not stated) | = | 0.92
C[N+]12CCc3ccccc3C1c1ccc(OCCCCCCCCOc3ccc4c(c3)CC[N+]3(C)CCc5ccccc5C43)cc1CC2 (configuration not stated) | = | 0.11
c1ccc2c(c1)CCN1CCc3cc(OCCCCOc4ccc5c(c4)CCN4CCc6ccccc6C54)ccc3C21 (configuration not stated) | = | 0.017
C[N+]12CCc3ccccc3C1c1ccc(OCCCCCCCCCCCCOc3ccc4c(c3)CC[N+]3(C)CCc5ccccc5C43)cc1CC2 (configuration not stated) | = | 0.036
c1ccc2c(c1)CCN1CCc3cc(OCCCCCOc4ccc5c(c4)CCN4CCc6ccccc6C54)ccc3C21 (configuration not stated) | = | 0.017
C[N+]12CCc3ccccc3C1c1ccc(OCCCOc3ccc4c(c3)CC[N+]3(C)CCc5ccccc5C43)cc1CC2 (configuration not stated) | = | 0.16
c1ccc2c(c1)CCN1CCc3cc(OCCCOc4ccc5c(c4)CCN4CCc6ccccc6C54)ccc3C21 (configuration not stated) | = | 0.15
c1ccc2c(c1)CCN1CCc3cc(OCCCCCCCCOc4ccc5c(c4)CCN4CCc6ccccc6C54)ccc3C21 (configuration not stated) | = | 0.68
C[N+]12CCc3ccccc3C1c1ccc(OCCCCCCOc3ccc4c(c3)CC[N+]3(C)CCc5ccccc5C43)cc1CC2 (configuration not stated) | = | 0.027
COc1ccc2c(c1)CC[N+]1(C)CCc3ccccc3C21 (configuration not stated) | = | 6.4
CN1CCc2ccccc2Cc2ccc(OCCCOc3ccc4c(c3)CCN(C)CCc3ccccc3C4)cc2CC1 | = | 0.14
c1ccc2c(c1)CCN1CCc3cc(OCCCCCCOc4ccc5c(c4)CCN4CCc6ccccc6C54)ccc3C21 (configuration not stated) | = | 0.014
C[N+]12CCc3ccccc3C1c1ccc(OCCCCOc3ccc4c(c3)CC[N+]3(C)CCc5ccccc5C43)cc1CC2 (configuration not stated) | = | 0.051
COc1ccc2c(c1)CCN(C)CCc1ccccc1C2 | > | 10000
C[N+]12CCc3ccccc3C1c1ccc(OCCCCCOc3ccc4c(c3)CC[N+]3(C)CCc5ccccc5C43)cc1CC2 (configuration not stated) | = | 0.047
COc1ccc2c(c1)CCN1CCc3ccccc3C21 (configuration not stated) | > | 10000
CN1CCc2ccccc2Cc2ccc(OCCCCCCCCOc3ccc4c(c3)CCN(C)CCc3ccccc3C4)cc2CC1 | = | 0.21

----------
Some compounds, each annotated with its measured CC50 at 24 h.
ASSAY_EXPLANATION: Cytotoxicity against human U87MG cells assessed as cell viability after 24 hrs by MTT assay
Type: cell-based, U-87MG ATCC
MEASURE_NAME: CC50 at 24 h (µM)

COMPOUND | REPORTED_RESULT
c1ccc2c(c1)CCN1CCc3cc(OCCCOc4ccc5c(c4)CCN4CCc6ccccc6C54)ccc3C21 (centres undefined) | 26.9
c1ccc2c(c1)CCN1CCc3cc(OCCCCCCCCOc4ccc5c(c4)CCN4CCc6ccccc6C54)ccc3C21 (centres undefined) | 42
c1ccc2c(c1)CCN1CCc3cc(OCCCCCCOc4ccc5c(c4)CCN4CCc6ccccc6C54)ccc3C21 (centres undefined) | 20.7
c1ccc2c(c1)CCN1CCc3cc(OCCCCOc4ccc5c(c4)CCN4CCc6ccccc6C54)ccc3C21 (centres undefined) | 19.5

----------
TGT: Acetylcholinesterase (Electrophorus electricus, UniProt O42275)
Sequence (O42275 whole entry): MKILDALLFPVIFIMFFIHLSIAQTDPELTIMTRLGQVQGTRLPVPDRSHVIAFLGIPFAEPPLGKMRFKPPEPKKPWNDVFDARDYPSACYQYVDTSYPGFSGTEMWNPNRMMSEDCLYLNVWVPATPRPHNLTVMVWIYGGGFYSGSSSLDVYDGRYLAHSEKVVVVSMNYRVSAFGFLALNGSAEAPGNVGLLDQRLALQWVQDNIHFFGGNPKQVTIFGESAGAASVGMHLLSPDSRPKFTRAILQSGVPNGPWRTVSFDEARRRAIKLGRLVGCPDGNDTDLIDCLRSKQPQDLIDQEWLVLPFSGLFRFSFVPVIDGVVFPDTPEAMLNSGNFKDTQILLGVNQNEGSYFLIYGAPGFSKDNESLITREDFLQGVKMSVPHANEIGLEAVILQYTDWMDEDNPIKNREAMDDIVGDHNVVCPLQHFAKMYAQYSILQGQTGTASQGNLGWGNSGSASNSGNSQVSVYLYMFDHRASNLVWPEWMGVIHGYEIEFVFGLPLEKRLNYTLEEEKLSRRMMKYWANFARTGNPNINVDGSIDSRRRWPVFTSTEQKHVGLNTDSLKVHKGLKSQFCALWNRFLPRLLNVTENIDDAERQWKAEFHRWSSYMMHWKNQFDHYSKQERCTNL
ASSAY_EXPLANATION: Inhibition of Electric eel AChE after 2 mins by colorimetric Ellman assay
CONDITIONS: read-out: IC50
In this section we review reported log10 of IC50 values for a set of compounds.
MEASURE_NAME: log10 of IC50 (log10 of the value in µM)

COMPOUND | TGT | log10 of IC50
C[N+]12CCc3ccccc3C1c1ccc(OCCCCCCCCCCCCOc3ccc4c(c3)CC[N+]3(C)CCc5ccccc5C43)cc1CC2 (centres undefined) | Acetylcholinesterase (Electrophorus electricus, UniProt O42275) | -0.92
COc1ccc2c(c1)CC[N+]1(C)CCc3ccccc3C21 (centres undefined) | Acetylcholinesterase (Electrophorus electricus, UniProt O42275) | 0.94
C[N+]12CCc3ccccc3C1c1ccc(OCCCCCOc3ccc4c(c3)CC[N+]3(C)CCc5ccccc5C43)cc1CC2 (centres undefined) | Acetylcholinesterase (Electrophorus electricus, UniProt O42275) | -0.55
c1ccc2c(c1)CCN1CCc3cc(OCCCCOc4ccc5c(c4)CCN4CCc6ccccc6C54)ccc3C21 (centres undefined) | Acetylcholinesterase (Electrophorus electricus, UniProt O42275) | 0.04
c1ccc2c(c1)CCN1CCc3cc(OCCCCCOc4ccc5c(c4)CCN4CCc6ccccc6C54)ccc3C21 (centres undefined) | Acetylcholinesterase (Electrophorus electricus, UniProt O42275) | -0.19
CN1CCc2ccccc2Cc2ccc(OCCCCCCCCOc3ccc4c(c3)CCN(C)CCc3ccccc3C4)cc2CC1 | Acetylcholinesterase (Electrophorus electricus, UniProt O42275) | 0.30
C[N+]12CCc3ccccc3C1c1ccc(OCCCCCCOc3ccc4c(c3)CC[N+]3(C)CCc5ccccc5C43)cc1CC2 (centres undefined) | Acetylcholinesterase (Electrophorus electricus, UniProt O42275) | -0.82
c1ccc2c(c1)CCN1CCc3cc(OCCCOc4ccc5c(c4)CCN4CCc6ccccc6C54)ccc3C21 (centres undefined) | Acetylcholinesterase (Electrophorus electricus, UniProt O42275) | 0.65

----------
In this section we review reported CC50 at 24 h values for a set of compounds.
ASSAY_EXPLANATION: Cytotoxicity against human U87MG cells assessed as cell viability after 24 hrs by MTT assay
Type: cell-based, U-87MG ATCC

COMPOUND | UNIT_TAG | CC50 at 24 h
COc1ccc2c(c1)CCN1CCc3ccccc3C21 (stereo not drawn) | µM | 775
c1ccc2c(c1)CCN1CCc3cc(OCCCCCOc4ccc5c(c4)CCN4CCc6ccccc6C54)ccc3C21 (stereo not drawn) | µM | 8.7
c1ccc2c(c1)CCN1CCc3cc(OCCCCCCCCCCCCOc4ccc5c(c4)CCN4CCc6ccccc6C54)ccc3C21 (stereo not drawn) | µM | 46.6
